- subject of test: T1, HSP70 (human HSP70; the antigen of the binning, humanization and variant binding assays) (human, UniProt P0DMV8 1-641, limits assumed)
- T1 construct: also called hu HSP70
- assay summary: BLI, anti-human Fc capture, antigen 100 nM
measured quantity: % Diss (%)
Reply with just the number (in %).

Please look at this binder and report its % Diss: h77A-1.76 (antibody, V domains shown, captured by anti-human Fc) VH: QIQLVQSGVEVKKPGASVKVSCKASGYTFTNYGMNWVRQAPGQGLEWMGWINTYTGETTYADDFKGRFTFTTDTSTSTAYMEVRSLRSDDTAVYFCARYDHAMDYWGQGTLVTVSS VL: EIVLTQSPDSLAVSLGERATINCKSSQSLFNSGTRKNYLAWYQQKAGQSPKLLIYWTSTRESGVPDRFSGSGSGTDFTLSIDSLQAEDVAVYYCKQSYTLYTFGGGTKVEIK
12.1

Please look at this binder and report its % Diss: h77A-1.13 (antibody, V domains shown, captured by anti-human Fc) VH: QIQLVQSGAEVKKPGASVKVSCKASGYTFTNYGMNWVRQAPGQGLEWMGWINTYTGEPTYADDFKGRFTFTTDTSTSTAYMELRSLRSDDTAVYFCARYDHPMDYWGQGTLVTVSS VL: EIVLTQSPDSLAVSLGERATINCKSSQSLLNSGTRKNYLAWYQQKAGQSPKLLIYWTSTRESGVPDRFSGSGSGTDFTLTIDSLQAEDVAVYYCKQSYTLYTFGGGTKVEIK
13.4

Please look at this binder and report its % Diss: h77A-1.53 (antibody, V domains shown, captured by anti-human Fc) VH: QIQLVQSGAEVKKPGASVKVSCKASGYTFTNYGMNWVRQAPGQGLEWMGWINTYTGEPKYTDDFKGRFTFTTDTSTRTAYMELRSLRSDDTAVYFCARYDHAMDYWGQGTLVTVSS VL: EIVLTQSPDSLSVSLGERATINCKSSQSLLNSGTRKNYLAWYQQKAGQSPKLLIYWTSTRESGVPDRFSGSGSGTDFTLTIDSLQAEDVAVYYCKQSYTLYTFGGGTKVEIK
11.1

Please look at this binder and report its % Diss: h77A-1.8 (antibody, V domains shown, captured by anti-human Fc) VH: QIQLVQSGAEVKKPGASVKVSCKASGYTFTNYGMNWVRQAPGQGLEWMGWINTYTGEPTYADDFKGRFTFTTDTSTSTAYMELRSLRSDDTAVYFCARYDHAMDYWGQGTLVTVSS VL: EIVLTQSPDSLAVSLGERATIKCKSSQSLLNSGTRKNYLAWYQQKAGQSPKLLIYWTSTRESGVPDRFSGSGSGTDFTLTIDSLQAEDVAVYYCKQSYTLYTFGGGTKVEIK
8.62

Please look at this binder and report its % Diss: h77A-1.29 (antibody, V domains shown, captured by anti-human Fc) VH: QIQLVQSGAEVKKPGASVKVSCKASGYTFTNYGMNWVRQAPGQGLEWMGWINTYTGEPTYADDFKGRFTFTTDTSTSTAYMELRSLRSDDTAVYFCARYDHFMDYWGQGTLVTVSS VL: EIVLTQSPDSLAVSLGERATINCKSSQSLFNSGTRKNYLAWYQQKAGQSPKLLIYWTSTRESGVPDRFSGSGSGTDFTLTIDSLQAEDVAVYYCKQSYTLYTFGGGTKVEIK
28.3
